# TESTED_TARGET: T1, recombinant mouse soluble gpNMB (recombinant mouse gpNMB-FLAG-His) (mouse, UniProt Q99P91 23-502)
# T1 sequence: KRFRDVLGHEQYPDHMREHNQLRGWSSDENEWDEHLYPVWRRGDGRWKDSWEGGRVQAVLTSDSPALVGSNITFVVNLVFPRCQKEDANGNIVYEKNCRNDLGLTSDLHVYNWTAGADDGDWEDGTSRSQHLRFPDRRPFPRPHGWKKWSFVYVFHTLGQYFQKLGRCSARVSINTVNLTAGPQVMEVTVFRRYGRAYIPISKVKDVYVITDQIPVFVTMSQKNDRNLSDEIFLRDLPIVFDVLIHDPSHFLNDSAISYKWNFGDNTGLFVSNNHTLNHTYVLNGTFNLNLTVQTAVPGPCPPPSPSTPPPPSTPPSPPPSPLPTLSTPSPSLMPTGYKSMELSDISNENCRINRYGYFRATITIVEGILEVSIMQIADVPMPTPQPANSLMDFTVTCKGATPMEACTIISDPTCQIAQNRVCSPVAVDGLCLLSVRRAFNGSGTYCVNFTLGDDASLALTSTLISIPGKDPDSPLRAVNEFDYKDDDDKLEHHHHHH
# METHOD: SPR single-cycle kinetics, antibody over captured gpNMB-FLAG-His, 36C, mean of 2
REPORTED_METRIC: koff (s⁻¹)
Give just the numeric value; s⁻¹ need not be written.

Here is how some binders turned out for koff.
hGPN18-5_H3L1 (antibody, V domains shown, humanized; also called hGPN18-5 VH3+VL1) VH: QVQLVQSGAEVKKPGASVKVSCKASGYTFTTYWMNWVRQAPGQGLEWIGAINPSNDYTEYNQKFKDRAIMTADKSTSTVYMELSSLRSEDTAVYYCGRSYSPDYWGQGTTVTVSS VL: DIQMTQSPSSLSASVGDRVTITCKASQNVDNHVAWFQQKPGKAPKALIYSASYRYSGVPSRFSGSGSGTDFTLTISSLQPEDFATYFCQQYKSYPFTFGGGTKLEIK : 0.000862
hGPN18-5_H3L3 (antibody, V domains shown, humanized; also called hGPN18-5_VH3+VL3) VH: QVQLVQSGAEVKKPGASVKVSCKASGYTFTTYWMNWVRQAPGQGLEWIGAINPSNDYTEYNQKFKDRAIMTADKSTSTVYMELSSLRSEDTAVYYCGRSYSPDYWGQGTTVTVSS VL: DIQMTQSPSSLSASVGDRVTITCKASQNVDNHVAWHQQKPGKAPKALIYSASYRYSGVPDRFTGSGSGTDFTLTISSLQPEDFADYFCQQYKSYPFTFGGGTKLEIK : 0.000711

Continue with the next binder.
In plain terms, hGPN18-5_H0L0 (antibody, V domains shown, chimeric antibody with mouse GPN18-5 variable regions (VH0, VL0); also called hGPN18-5_VH0+VL0; HGPN18-5_VH0+VL0) VH: QVQLQQSGAELAKPGTSVKMSCKASGYTFTTYWMNWVKQRPGQDLEWIGAINPSNDYTEYNQKFKDKAILTADKSSNTAYMQLSSLTSEDSAVYYCGRSYSPDYWGQGTTLTVSS VL: DIVMTQSQKFMSTSVGDRVSVTCKASQNVDNHVAWHQQKPGQSPKALIYSASYRYSGVPDRFTGSGSGTDFTLTIRDVQSEDLADYFCQQYKSYPFTFGSGTELEIK has a documented koff of 0.00075
